# assay_conditions: human, serum
readout_type: Hepatotoxicity (moderate)

molecule="NC(=O)N1c2ccccc2C=Cc2ccccc21 [CARBAMAZEPINE]" reported_value=40
molecule="Oc1ccc2[nH]cc(CCCCN3CC=C(c4ccccc4)CC3)c2c1 [ROXINDOLE]" reported_value=1
molecule="O=C(O)CN1C(=O)c2cccc3cccc(c23)C1=O [ALRESTATIN]" reported_value=2
molecule="CCCC1O[C@@H]2C[C@H]3[C@@H]4CCC5=CC(=O)C=C[C@]5(C)[C@H]4[C@@H](O)C[C@]3(C)[C@]2(C(=O)CO)O1 (stereo partly specified) [BUDESONIDE]" reported_value=0
molecule="[H]/N=C(\\N/C(=N/[H])NCCCCCCNC(=N)NC(=N)Nc1ccc(Cl)cc1)Nc1ccc(Cl)cc1 [CHLORHEXIDINE]" reported_value=0
molecule="CN(CCCN1c2ccccc2CCc2ccccc21)CC(=O)c1ccc(Cl)cc1 [LOFEPRAMINE]" reported_value=7

----------
# assay_conditions: human
readout_type: Hepatotoxicity (cytolytic)

compound=Fc1ccccc1C1=NCC(=S)N(CC(F)(F)F)c2ccc(Cl)cc21 reported_value=0
compound=Cc1onc(-c2c(Cl)cccc2Cl)c1C(=O)N[C@@H]1C(=O)N2[C@@H]1SC(C)(C)[C@@H]2C(=O)O reported_value=0
compound="N=C(N)NC(=O)c1nc(Cl)c(N)nc1N [AMILORIDE]" reported_value=0
compound=CCOC(=O)C1=C[C@@H](OC(CC)CC)[C@H](NC(C)=O)[C@@H](N)C1 reported_value=0
compound=O=C1CN=C(c2ccccc2)c2c(sc3c2CCCC3)N1 reported_value=2
compound=Cc1ccnc2c1NC(=O)c1cccnc1N2C1CC1 reported_value=29
compound="NS(=O)(=O)c1cc(C(=O)O)cc(N2CCCC2)c1Oc1ccccc1 [PIRETANIDE]" reported_value=1
compound="CCC(Cc1cnc2nc(N)nc(N)c2n1)c1ccc(C(=O)N[C@@H](CCC(=O)O)C(=O)O)cc1 (stereo not given in full) [EDATREXATE]" reported_value=2
compound=CN(C)CCOc1ccc(/C(=C(/CCCl)c2ccccc2)c2ccccc2)cc1 reported_value=0
compound=CCC(=O)O[C@@H]1CC(=O)O[C@H](C)C/C=C/C=C/[C@H](O)[C@H](C)C[C@H](CC=O)[C@H](O[C@@H]2O[C@H](C)[C@@H](O[C@H]3C[C@@](C)(O)[C@@H](OC(=O)CC)[C@H](C)O3)[C@H](N(C)C)[C@H]2O)[C@H]1OC reported_value=1
compound="O=C(c1ccccc1)c1ccc2n1CCC2C(=O)O (stereo not given)" reported_value=1
compound="Cc1ccccc1N1C(=O)c2cc(S(N)(=O)=O)c(Cl)cc2NC1C (stereo not given)" reported_value=0
compound="CCOP(=O)(OCC)C(C)NC(=O)N(CCCl)N=O (stereo not given)" reported_value=0
compound=COc1ccc(NS(=O)(=O)c2ccc(N)cc2)nn1 reported_value=4
compound="CC1(C)O[C@@H]2[C@@H](CO[C@@]3(COS(N)(=O)=O)OC(C)(C)O[C@@H]23)O1 [TOPIRAMATE]" reported_value=2
compound=COc1cccc2c1C(=O)c1c(O)c3c(c(O)c1C2=O)C[C@@](O)(/C(C)=N/NC(=O)c1ccccc1)C[C@@H]3O[C@H]1C[C@H](N)[C@H](O)[C@H](C)O1 reported_value=0
compound="O=C1Nc2ccc(Cl)cc2C(c2ccccc2Cl)=NC1O (stereo not given)" reported_value=0
compound=CCOC(=O)c1c(N)sc2c1CCN(Cc1ccccc1)C2 reported_value=0
compound=O=c1oc2ccccc2c(O)c1Cc1c(O)c2ccccc2oc1=O reported_value=0
compound=CC(=O)c1ccc2c(c1)N(CCCN(C)C)c1ccccc1S2 reported_value=0

The origin of these recorded values is ChEMBL document CHEMBL3137667.
